These data points were gathered from the supplement of paper PMC3545927.

Provide the reported furin cleavage Z-score of each item.
- assay-target: furin, P09958;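 further: purified furin at 1:10 enzyme:substrate in 50 mM HEPES pH 7.5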
- Sequence (P09958 whole entry): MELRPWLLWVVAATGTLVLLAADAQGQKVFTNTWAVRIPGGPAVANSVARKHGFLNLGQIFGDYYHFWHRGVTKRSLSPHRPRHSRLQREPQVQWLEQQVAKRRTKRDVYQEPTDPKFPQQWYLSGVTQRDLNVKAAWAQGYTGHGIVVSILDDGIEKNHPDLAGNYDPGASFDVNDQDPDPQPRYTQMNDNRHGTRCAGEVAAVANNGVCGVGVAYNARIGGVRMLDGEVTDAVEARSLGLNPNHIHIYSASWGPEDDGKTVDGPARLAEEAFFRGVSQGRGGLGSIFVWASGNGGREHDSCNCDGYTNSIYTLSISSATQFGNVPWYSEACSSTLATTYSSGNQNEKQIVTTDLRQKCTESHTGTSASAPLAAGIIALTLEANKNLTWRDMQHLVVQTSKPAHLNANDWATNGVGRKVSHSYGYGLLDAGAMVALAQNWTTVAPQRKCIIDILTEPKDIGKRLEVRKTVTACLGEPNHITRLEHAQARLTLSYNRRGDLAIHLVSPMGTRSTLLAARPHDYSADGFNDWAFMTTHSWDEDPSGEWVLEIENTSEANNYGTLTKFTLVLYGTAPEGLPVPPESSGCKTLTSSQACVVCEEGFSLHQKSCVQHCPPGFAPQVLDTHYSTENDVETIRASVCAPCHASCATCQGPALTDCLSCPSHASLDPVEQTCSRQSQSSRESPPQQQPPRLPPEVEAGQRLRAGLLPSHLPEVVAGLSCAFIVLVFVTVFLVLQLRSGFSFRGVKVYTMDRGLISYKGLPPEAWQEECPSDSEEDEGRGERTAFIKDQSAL
- procedure-summary: furin cleavage Z-score vs untreated control; higher = more cleavage, active = 3.5 or more, inactive = 1 or less, 8 variable residues between constant flanks
- test-parameters: 7.5 min
Some of the results follow. The hit rate among all sequences tested is not known here.
Give bare numbers.

In [3]: df
Out[3]:
                       seq_text       measurement_label  measured_value
0    CALVGSATLCAGNASASA [HC293]  furin cleavage Z-score          -0.853
1     CATTPTSGSWAGNASASA [HC56]  furin cleavage Z-score            -1.1
2  CAAKRRTRRQAGNASASA [FS-1443]  furin cleavage Z-score            9.31

Attention now turns to another entry.
Field request: furin cleavage Z-score | item: CAKKMRNKRNAGNASASA [FS-42] 10.5
